System: Fibroblast
METHOD_SUMMARY: Incucyte cell viability with human fibroblast; also: filed as whole numbers so only -1 and 0 and 1 occur
Assay type: toxicity, cell-based
EXPERIMENTAL_CONTEXT: 0 h, 10 µM, compound concentration 10 uM, replicate number 2, timepoint 0 hours
PARAMETER_MEASURED: Growth Rate
Returns: the value as a bare number; no unit string appended.

The examples below pair each entry with its known result.
Cl.O=C(Cc1ccc(Cl)c(Cl)c1)N1CCCC[C@H]1CN1CCCC1; 1
COc1cc(N2CCC(O)CC2)ccc1Nc1cc(Nc2ccccc2S(=O)(=O)C(C)C)c2cc[nH]c2n1; 0
c1ccc(-c2oc3ncnc(NC[C@@H]4CCCO4)c3c2-c2ccccc2)cc1; 1
C[C@@H](N)Cc1c[nH]cn1.Cl.Cl; 0

Growth Rate recorded for this molecule, "CCOC(=O)CCNc1cc(N2CCc3ccccc3CC2)nc(-c2ccccn2)n1" , is 0

* * *

Tested on: U2OS
METHOD_SUMMARY: Multiplex assay against U2OS
Assay type: toxicity, cell-based
EXPERIMENTAL_CONTEXT: human, 12 h, 10 µM, compound concentration 10 uM, replicate 2
In plain terms, low Total Cell Count, meaning strictly below 80, gives y, and everything else gives n.

CCOC(=O)CCNc1cc(N2CCc3ccccc3CC2)nc(-c2ccccn2)n1; n
CC[C@H](Nc1ncnc2[nH]cnc12)c1nc2cccc(F)c2c(=O)n1-c1ccccc1 [IDELALISIB]; n
c1ccc(-c2oc3ncnc(NC[C@@H]4CCCO4)c3c2-c2ccccc2)cc1; y
NC(=O)c1ccc2nc(-c3ccc(C4(N)CCC4)cc3)c(-c3ccccc3)n2n1 [BAY-1125976]; n
Cc1c(Nc2ccc(S(=O)(=O)N3CCN(C)CC3)cc2F)nc2ccc(Nc3cnn(C4CC4)c3)cn2c1=O; n

Criterion: Total Cell Count strictly below 80. Is it met by "Cl.NC[C@@H]1O[C@H](C23CC4CC(CC(C4)C2)C3)Cc2c1ccc(O)c2O" ?
y

* * *

System: Fibroblast
METHOD_SUMMARY: Multiplex assay against human fibroblast
Format: toxicity, cell-based
EXPERIMENTAL_CONTEXT: 24 h, 10 µM, compound concentration 10 uM, replicate 2
Sorting guide: entries reporting Population Tubulin-Different-Phenotype (%) beneath 50% go in the yes (1) pile, the rest go in the no (0) pile.

CCOc1ccn(-c2ccc(F)cc2)c(=O)c1C(=O)Nc1ccc(Oc2ccnc(N)c2Cl)c(F)c1; yes (1)
CC(C)[C@H](CO)Nc1nc(Nc2cccc(Cl)c2)c2ncn(C(C)C)c2n1; no (0)
C[C@@H](Oc1cc(-n2cnc3ccc(CN4CCN(C)CC4)cc32)sc1C(N)=O)c1ccccc1C(F)(F)F; no (0)
Oc1cccc(-c2nc(N3CCOCC3)c3oc4ncccc4c3n2)c1; no (0)

Threshold test, Population Tubulin-Different-Phenotype (%) < 50%: "Cc1ccc(NC(=O)Nc2cc(C(F)(F)F)ccc2F)cc1Nc1ccc2c(c1)NC(=O)/C2=C\c1ccc[nH]1"
yes (1)

Quick check: Population Tubulin-Different-Phenotype (%) of "CC[C@@H]1C(=O)N(C)c2cnc(Nc3ccc(C(=O)NC4CCN(C)CC4)cc3OC)nc2N1C1CCCC1" under 50%?
no (0)

* * *

Tested on: HEK-293T
METHOD_SUMMARY: Multiplex assay against HEK293T
Type: toxicity, cell-based
EXPERIMENTAL_CONTEXT: human, 24 h, 1 µM, compound concentration 1 uM, replicate 1
PARAMETER_MEASURED: Population Membrane Permeable-Phenotype (%)

// solved cases for Population Membrane Permeable-Phenotype (%) follow
Cl.Cn1c2c(c3ccc(Cl)c(Cl)c31)C(C#N)C1(CCNCC1)NC2=O (configuration not stated); 17%
C[C@@H](Oc1cc(-n2cnc3ccc(CN4CCN(C)CC4)cc32)sc1C(N)=O)c1ccccc1C(F)(F)F; 0%
CCOc1ccn(-c2ccc(F)cc2)c(=O)c1C(=O)Nc1ccc(Oc2ccnc(N)c2Cl)c(F)c1; 10%
Cl.NC[C@@H]1O[C@H](C23CC4CC(CC(C4)C2)C3)Cc2c1ccc(O)c2O; 0%
COc1cc(Nc2ccnc3ccc(Br)cc23)cc(OC)c1OC; 7%
CC[C@H](Nc1ncnc2[nH]cnc12)c1nc2cccc(F)c2c(=O)n1-c1ccccc1; 16%

Turning now to a further record.
According to the records, this molecule "CN(c1cc(C(F)(F)F)nc(OCCC(=O)O)n1)c1cccc2c1CCC2" displays Population Membrane Permeable-Phenotype (%) of 1%

* * *

Tested on: Fibroblast
METHOD_SUMMARY: Multiplex assay against human fibroblast
Format: toxicity, cell-based
EXPERIMENTAL_CONTEXT: 24 h, 1 µM, compound concentration 1 uM, replicate 2
Label Fulfilled when Population Mitotic Cells (%) < 60%; otherwise Not fulfilled.

Take a look at these entries with their results.
CC(Cc1ccc(O)c(O)c1)C(C)Cc1ccc(O)c(O)c1 (stereo not drawn) [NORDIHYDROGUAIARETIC ACID]; Not fulfilled
Cl.NC[C@@H]1O[C@H](C23CC4CC(CC(C4)C2)C3)Cc2c1ccc(O)c2O; Fulfilled
CCCCN(CC)c1nc(C)nc2c1c(C)cn2-c1c(C)cc(C)cc1C.Cl; Not fulfilled
CCOc1ccn(-c2ccc(F)cc2)c(=O)c1C(=O)Nc1ccc(Oc2ccnc(N)c2Cl)c(F)c1; Fulfilled
C[C@@H](Oc1cc(-n2cnc3ccc(CN4CCN(C)CC4)cc32)sc1C(N)=O)c1ccccc1C(F)(F)F; Fulfilled

Check if Population Mitotic Cells (%) falls below 60% for "N#CCNC(=O)c1ccc(-c2ccnc(Nc3ccc(N4CCOCC4)cc3)n2)cc1" .
Fulfilled

Bench note: check whether "Cc1ccc(S(=O)(=O)NC2c3ccccc3Oc3ccccc32)cc1" shows Population Mitotic Cells (%) below 60%
Not fulfilled

* * *

Tested on: U2OS
METHOD_SUMMARY: Multiplex assay against U2OS
Format: toxicity, cell-based
EXPERIMENTAL_CONTEXT: human, 12 h, 1 µM, compound concentration 1 uM, replicate 2
Collected Population Mitotic Cells (%) values appear next to each entry.
Just the number plus its unit, please.

For orientation, consider the following solved cases.
CCOC(=O)CCNc1cc(N2CCc3ccccc3CC2)nc(-c2ccccn2)n1; 54%
CCOc1ccn(-c2ccc(F)cc2)c(=O)c1C(=O)Nc1ccc(Oc2ccnc(N)c2Cl)c(F)c1 [BMS-777607]; 71%
Oc1cccc(-c2nc(N3CCOCC3)c3oc4ncccc4c3n2)c1 [PI-103]; 52%
C[C@@H](Oc1cc(-n2cnc3ccc(CN4CCN(C)CC4)cc32)sc1C(N)=O)c1ccccc1C(F)(F)F [GSK-461364]; 87%
CC(C)[C@H](CO)Nc1nc(Nc2cccc(Cl)c2)c2ncn(C(C)C)c2n1 [PURVALANOLA]; 50%

Kindly note: U2OS, NC(=O)c1ccc2nc(-c3ccc(C4(N)CCC4)cc3)c(-c3ccccc3)n2n1 [BAY-1125976] , Population Mitotic Cells (%) value reported: 57%

Form field Population Mitotic Cells (%) for item "Cl.NC[C@@H]1O[C@H](C23CC4CC(CC(C4)C2)C3)Cc2c1ccc(O)c2O" on U2OS: 100%

Entry "Cc1c(Nc2ccc(S(=O)(=O)N3CCN(C)CC3)cc2F)nc2ccc(Nc3cnn(C4CC4)c3)cn2c1=O" : Population Mitotic Cells (%) on U2OS = 100%

Param item: "CC(C)c1cc(Nc2nc(N3CCC[C@H](N)C3)ncc2C(N)=O)cc(C(C)C)n1" ; param system: U2OS; output Population Mitotic Cells (%): 55%

* * *

System: HEK-293T
METHOD_SUMMARY: Multiplex assay against HEK293T
Assay type: toxicity, cell-based
EXPERIMENTAL_CONTEXT: human, 24 h, 1 µM, compound concentration 1 uM, replicate 1
PARAMETER_MEASURED: Population Healthy Nuclei (%)
Expressed in %, but write only the number.

Completed entries (count: 3):
Cl.NC[C@@H]1O[C@H](C23CC4CC(CC(C4)C2)C3)Cc2c1ccc(O)c2O; 65
Cc1ccc(NC(=O)Nc2cc(C(F)(F)F)ccc2F)cc1Nc1ccc2c(c1)NC(=O)/C2=C\c1ccc[nH]1; 34
C[C@@H](Oc1cc(-n2cnc3ccc(CN4CCN(C)CC4)cc32)sc1C(N)=O)c1ccccc1C(F)(F)F [GSK-461364]; 22

In the following, a different compound is considered.
Lookup result for CN1C(=O)[C@@H](NC(=O)c2cc3ccccc3[nH]2)N=C(c2ccccc2)c2ccccc21 [DEVAZEPIDE] ; measured Population Healthy Nuclei (%): 36

* * *

Reported Population Membrane Permeable-Phenotype (%) by item:
System: HEK-293T
METHOD_SUMMARY: Multiplex assay against HEK293T
Format: toxicity, cell-based
EXPERIMENTAL_CONTEXT: human, 24 h, 10 µM, compound concentration 10 uM, replicate 1
Express your answer in %, writing the number without its unit.

Cc1ccc(S(=O)(=O)NC2c3ccccc3Oc3ccccc32)cc1; 7
CC[C@H](Nc1ncnc2[nH]cnc12)c1nc2cccc(F)c2c(=O)n1-c1ccccc1 [IDELALISIB]; 8
CCCCCNC(=N)N/N=C/c1c[nH]c2ccc(OC)cc12.O=C(O)/C=C\C(=O)O [TEGASEROD MALEATE]; 100
CC[C@@H]1C(=O)N(C)c2cnc(Nc3ccc(C(=O)NC4CCN(C)CC4)cc3OC)nc2N1C1CCCC1 [BI-2536]; 7
CCOc1ccn(-c2ccc(F)cc2)c(=O)c1C(=O)Nc1ccc(Oc2ccnc(N)c2Cl)c(F)c1 [BMS-777607]; 6
Cc1ccc(NC(=O)Nc2cc(C(F)(F)F)ccc2F)cc1Nc1ccc2c(c1)NC(=O)/C2=C\c1ccc[nH]1; 2

Query "CN(c1cc(C(F)(F)F)nc(OCCC(=O)O)n1)c1cccc2c1CCC2" yields Population Membrane Permeable-Phenotype (%) of 4

What the record says about Oc1cccc(-c2nc(N3CCOCC3)c3oc4ncccc4c3n2)c1 [PI-103] : Population Membrane Permeable-Phenotype (%) is 10

Every entry's value here was drawn from ChEMBL document CHEMBL4689842.
